Target: T1, DFNB31_1, Q9P202
T1 sequence (Q9P202 135-233, limits assumed, looked up): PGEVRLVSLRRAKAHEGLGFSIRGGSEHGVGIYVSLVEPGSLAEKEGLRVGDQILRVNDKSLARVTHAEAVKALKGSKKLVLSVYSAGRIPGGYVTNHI
Assay: holdup assay
Design: key: below the threshold = too weak to quantify, mostly under pKd 3.1 to 4
Settings: plain residues with an end cap or a label only (N-terminal biotin on a linker: ado-ado)
quantity name: pKd

The examples below pair each entry with its known result.
>  <binder>
DLLGGGSDSI [TNRC6B, Q9UPQ9]

>  <pKd>
below the threshold

$$$$
>  <binder>
SKQFDKNAYV [CLDN10, P78369]

>  <pKd>
below the threshold

$$$$
>  <binder>
PALKNGQYWV [CSPG4, Q6UVK1]

>  <pKd>
below the threshold

$$$$
>  <binder>
IGHEDLETAV [DGKI, O75912]

>  <pKd>
4.79

$$$$

Report pKd for DAAHHDESNC [FMNL3, Q8IVF7] please.
below the threshold

Report pKd for TKEIPNCTSV [SORCS3, Q9UPU3] please.
4.06

Report pKd for LLQEEWETVM [PTH1R, Q03431] please.
3.84

Report pKd for ADEMICITTL [CACNA1D, Q01668] please.
3.63

Report pKd for STYCDYTIEI [FAM71C, Q8NEG0] please.
below the threshold

Report pKd for SRPHTNETSL [MCC, P23508] please.
4.28

Report pKd for KSRPENGTVC [TMEM178B, H3BS89] please.
below the threshold

Report pKd for GQNMTVSVVI [PRLHR, P49683] please.
below the threshold

Report pKd for KKTPVSRSHL [SLC22A3, O75751] please.
below the threshold

Report pKd for ELKAEDEVQI [DCHS2, Q6V1P9] please.
below the threshold

Report pKd for EPAKETTTNV [SLC2A3, P11169] please.
3.61

Report pKd for PAALPESTHM [SLC9A3, P48764] please.
below the threshold
